tested target: Histone acetyltransferase KAT8 (Homo sapiens, UniProt Q9H7Z6)
Sequence (Q9H7Z6 whole entry): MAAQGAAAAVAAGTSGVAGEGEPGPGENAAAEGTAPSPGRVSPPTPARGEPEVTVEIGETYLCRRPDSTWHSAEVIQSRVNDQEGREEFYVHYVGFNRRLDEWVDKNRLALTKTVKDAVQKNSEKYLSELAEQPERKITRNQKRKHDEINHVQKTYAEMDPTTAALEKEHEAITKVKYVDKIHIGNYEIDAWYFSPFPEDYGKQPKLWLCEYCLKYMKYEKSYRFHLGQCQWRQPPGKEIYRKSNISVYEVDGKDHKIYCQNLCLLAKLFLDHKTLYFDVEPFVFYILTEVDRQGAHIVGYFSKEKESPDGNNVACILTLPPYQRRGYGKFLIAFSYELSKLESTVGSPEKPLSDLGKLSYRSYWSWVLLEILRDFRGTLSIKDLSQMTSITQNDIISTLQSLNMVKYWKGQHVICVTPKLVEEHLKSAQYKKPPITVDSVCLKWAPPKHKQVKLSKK
run description: Inhibition of recombinant N-terminal His6-tagged KAT8 (unknown origin) expressed in Escherichia Coli BL21 DE3 cells assessed as reduction of Co A level using histone H4 substrate after 15 mins by CPM fluorescence assay
readout name: IC50 (µM)

Known IC50 results, listed for orientation:
CCCCCCCCCCc1cccc(O)c1C(=O)O: 123
CCCCCCCCCCc1ccc(O)c(C(=O)O)c1: 191

I = CCCCCCCCCCCCCCCc1ccc(O)c(C(=O)O)c1
II = O=C(O)c1c(O)cccc1CCCCCCCCCCCO
Prompt: Lab note: check whether I or II has the lower measured IC50. // caller expects the label of the chosen entry
Completion: I
